Below, each entry is listed alongside its reported protein stability index.
B1: PPFIA4 (parent)
chain: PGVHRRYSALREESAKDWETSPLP

Variants of: B1
Test: protein stability index of a GFP-peptide fusion (GPS, HEK-293T) (PSI 1-6); higher = more stable;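 further: lentivirally expressed fusions sorted by FACS into six bins by GFP to DsRed ratio, PSI derived from sequencing read proportions per bin multiplied by bin number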
Conditions: c terminus: a fixed tail appended
Answer with the value's number alone.

AGVHRRYSALREESAKDWETSPLP [P1A] ... 3.5
PGVHRNYSALREESAKDWETSPLP [R6N] ... 4.48
PGVHRRYSALRFESAKDWETSPLP [E12F] ... 3.02
PGVHRRYSALREESAKDWATSPLP [E19A] ... 2.97
PGVHRRYSTLREESAKDWETSPLP [A9T] ... 4.19

Now look at this one.
Qu. Report protein stability index for PGVHRRYSALRRESAKDWETSPLP [E12R]
Ans. 3.45
